tested on: PC-3; assay: cells; conditions: Homo sapiens, PC-3, 96 h, read-out: IC50 ± SEM (nM), PC-3
Parameter IC50: see the listing below.
Field: numeric (nM). Do not append units.

Completed entries (count: 2):
>>> recorded_value("COc1cc(C(=O)c2csc(-c3ccc4[nH]ccc4c3)n2)cc(OC)c1OC [66a]")
7
>>> recorded_value("COc1cc(C(=O)c2c[nH]c(-c3ccc(C(F)(F)F)cc3)n2)cc(OC)c1OC [12pa]")
127

-- ask Return IC50 for the following compound: COc1cc(/C(=C/C#N)c2csc(-c3ccccc3)n2)cc(OC)c1OC [2c-trans]
-- reply 890

-- ask Item COc1cc(C(=O)c2cccc(-c3ccccc3)c2)cc(OC)c1OC [1a] : provide IC50
-- reply 81

-- ask Let me know recorded IC50 for COc1ccc(S(=O)(=O)n2cc(C(=O)c3ccc(F)cc3)nc2-c2ccc(N(C)C)cc2)cc1 [12gba] , thanks.
-- reply 44.1

-- ask Please report IC50 for the following compound: COc1cc(/C(=N/O)c2csc(-c3ccccc3)n2)cc(OC)c1OC [2e-cis]
-- reply 120

====

In this section we review reported IC50 values for a set of compounds.
system: PC-3; assay: cells; conditions: read-out: IC50 ±SEM (nM), PC-3; Table 6

Before answering, review these 3 worked examples.
>>> recorded_value("COc1cc(C(=O)c2csc(-c3cc(F)c(F)c(F)c3)n2)cc(OC)c1OC [2p]")
"2380 nM"
>>> recorded_value("COc1cc(C(=O)c2csc(-c3ccccc3)n2)cc(OC)c1OCCN1C(=O)c2ccccc2C1=O [compound 20]")
"73 nM"
>>> recorded_value("COc1cc(C(=O)c2csc(-c3ccc(CC(N)=O)cc3)n2)cc(OC)c1OC [2q]")
"> 10000 nM"

-- ask For the compound COc1cc(C(=O)c2csc(-c3ccc(C)cc3)n2)cc(OC)c1OC [2m] , give its measured IC50 value.
-- reply 8.7 nM

====

system: DU 145; experiment: cells; details: Homo sapiens, DU-145, read-out: IC50 ±SEM (nM), DU 145
Observation Type: IC50 (nM)
Write the answer as a number in nM, unit excluded.

Worked set:
>>> recorded_value("COc1cc(C(=O)c2csc(-c3ccc(CC#N)cc3)n2)cc(OC)c1OC [2n]")
143
>>> recorded_value("COc1cc(C(=O)c2cc(-c3ccccc3)n[nH]2)cc(OC)c1OC [1k]")
140

-- ask Using the record for Clc1nccc2ccc(-c3ccc4[nH]ccc4c3)cc12 [6d, 1-Chloro-7-(1H-indol-5-yl)-isoquinoline] , state its measured IC50.
-- reply 1640

====

tested on: B16-F1; experiment: SRB cell growth inhibition (cytotoxicity) assay; type: cell-based, mouse; conditions: Table 6; read-out: IC50 ±SEM (nM), B16-F1
Observation Type: IC50 (nM)
Record the value in nM, omitting the unit from your answer.

>>> recorded_value("COc1cc(C(=O)c2csc(-c3ccccc3)n2)cc(OC)c1OCCN1C(=O)c2ccccc2C1=O [compound 20]")
42
>>> recorded_value("COc1cc(C(=O)c2csc(-c3cc(F)c(F)c(F)c3)n2)cc(OC)c1OC [2p]")
16600

We next turn to a different compound, shown below.
-- ask State, in one line, measured IC50 of COc1cc(C(=O)c2csc(-c3ccc(C)cc3)n2)cc(OC)c1OC [2m]
-- reply 21
